Reference source: the supplement of paper PMC6757056

B1: library; a variant is named by its letters at N, in order (parent)
chain: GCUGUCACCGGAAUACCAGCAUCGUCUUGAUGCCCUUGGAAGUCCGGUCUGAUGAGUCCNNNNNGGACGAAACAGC

# Variants of: B1
# Procedure summary: normalized RNA/DNA level without ligand (relative to sTRSVctl = 100) (log10 (% of sTRSVctl)); higher = less ribozyme self-cleavage, higher mRNA level
# Measurement parameters: HEK293T, reporter: mCherry (pCS4076), ligand present: no
Result type: normalized RNA/DNA level without ligand (log10)
Respond with the number and no other words.

GCUGUCACCGGAAUACCAGCAUCGUCUUGAUGCCCUUGGAAGUCCGGUCUGAUGAGUCCAGGAAGGACGAAACAGC [AGGAA] ... 1.17

Could you please provide reported normalized RNA/DNA level without ligand (log10) for GCUGUCACCGGAAUACCAGCAUCGUCUUGAUGCCCUUGGAAGUCCGGUCUGAUGAGUCCAUGGCGGACGAAACAGC [AUGGC] ? Thanks!
1.88

Could you please provide reported normalized RNA/DNA level without ligand (log10) for GCUGUCACCGGAAUACCAGCAUCGUCUUGAUGCCCUUGGAAGUCCGGUCUGAUGAGUCCCGGUAGGACGAAACAGC [CGGUA] ? Thanks!
1.3

Could you please provide reported normalized RNA/DNA level without ligand (log10) for GCUGUCACCGGAAUACCAGCAUCGUCUUGAUGCCCUUGGAAGUCCGGUCUGAUGAGUCCAAAUGGGACGAAACAGC [AAAUG] ? Thanks!
1.75

Could you please provide reported normalized RNA/DNA level without ligand (log10) for GCUGUCACCGGAAUACCAGCAUCGUCUUGAUGCCCUUGGAAGUCCGGUCUGAUGAGUCCGAUCGGGACGAAACAGC [GAUCG] ? Thanks!
1.78

Could you please provide reported normalized RNA/DNA level without ligand (log10) for GCUGUCACCGGAAUACCAGCAUCGUCUUGAUGCCCUUGGAAGUCCGGUCUGAUGAGUCCUUAAGGGACGAAACAGC [UUAAG] ? Thanks!
1.86

Could you please provide reported normalized RNA/DNA level without ligand (log10) for GCUGUCACCGGAAUACCAGCAUCGUCUUGAUGCCCUUGGAAGUCCGGUCUGAUGAGUCCAAUCGGGACGAAACAGC [AAUCG] ? Thanks!
1.87

Could you please provide reported normalized RNA/DNA level without ligand (log10) for GCUGUCACCGGAAUACCAGCAUCGUCUUGAUGCCCUUGGAAGUCCGGUCUGAUGAGUCCCAAGUGGACGAAACAGC [CAAGU] ? Thanks!
1.94

Could you please provide reported normalized RNA/DNA level without ligand (log10) for GCUGUCACCGGAAUACCAGCAUCGUCUUGAUGCCCUUGGAAGUCCGGUCUGAUGAGUCCAUCACGGACGAAACAGC [AUCAC] ? Thanks!
1.96
